Every entry's value here was drawn from the supplement of paper PMC10567573.

B1: PPFIA4 (parent)
chain: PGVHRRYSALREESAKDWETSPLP

# Variants of: B1
# Assay Method Text: protein stability index of a GFP-peptide fusion (GPS, HEK-293T) (PSI 1-6); higher = more stable;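 further: lentivirally expressed fusions sorted by FACS into six bins by GFP to DsRed ratio, PSI derived from sequencing read proportions per bin multiplied by bin number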
# Test Settings: c terminus: a fixed tail appended
Give protein stability index for every item shown.
Give bare numbers.

Record protein stability index for all entries; do not skip any.
1. L10S
2. P1Q
3. D17S
4. T20P
5. D17W

Response:
4.53
4.18
4.16
4.6
1.97

Record protein stability index for all entries; do not skip any.
1. P22K
2. A9M
3. V3Y
4. P1T
5. Y7N
6. T20F

Response:
1: 4.23; 2: 3.86; 3: 3.55; 4: 4.16; 5: 4.5; 6: 2.71
